run_description: Solubility measurements by gravimetric method in solvents at 23° C. and 50° C.
Format: physicochemical
experimental_conditions: MeOAc:MeOH (1:1), 23 °C, organic solvent or mixture, thermodynamic from solid, non-crystalline freebase; MeOAc:MeOH (1:1), 23° C.; read-out: Solubility
Method: Solubility measurements were done by gravimetric method in 20 different solvents at two temperatures (23° C. and 50° C.). About 20-30 mg of Form A, the synthesis of which is described below, was weighed and 0.75 mL solvent was added to form a slurry. […] From these three weights; vial, vial+liquid and vial+solid; the weight of dissolved solid and the solvent were calculated. Then using solvent density the solubility was calculated as mg solid/mL of solvent. […]
endpoint_label: solubility at 2 days (mg/mL)
Just the number in mg/mL, nothing appended.

query: Write down solubility at 2 days measured for item O=C(c1ccc(NS(=O)(=O)c2cccc3cccnc23)cc1)N1CCN(CC2CC2)CC1 [Compound 1]
result: 15

* * *

run_description: Solubility measurements by gravimetric method in solvents at 23° C. and 50° C.
Format: physicochemical
experimental_conditions: Toluene:EtOH:water (10:5:0.5), 23 °C, organic solvent or mixture, thermodynamic from solid, Toluene:EtOH:water (10:5:0.5), 23° C.; read-out: Solubility
endpoint_label: solubility at 2 days (µg/mL)
Just the number in µg/mL, nothing appended.

query: Write down solubility at 2 days measured for item O=C(c1ccc(NS(=O)(=O)c2cccc3cccnc23)cc1)N1CCN(CC2CC2)CC1 [Form A, hemisulfate sesquihydrate]
result: 1000

* * *

run_description: Solubility measurements by gravimetric method in solvents at 23° C. and 50° C.
Format: physicochemical
experimental_conditions: MeOH:water (1:1) system as printed, 1% water, organic solvent or mixture, thermodynamic from solid, MeOH:water (1:1) system as printed, 1% water; read-out: room temperature solubility
endpoint_label: solubility at 2 days (mg/mL)
Just the number in mg/mL, nothing appended.

query: Write down solubility at 2 days measured for item O=C(c1ccc(NS(=O)(=O)c2cccc3cccnc23)cc1)N1CCN(CC2CC2)CC1 [Form A, hemisulfate sesquihydrate]
result: 118

* * *

run_description: Solubility measurements by gravimetric method in solvents at 23° C. and 50° C.
Format: physicochemical
experimental_conditions: acetone, 50 °C, organic solvent or mixture, thermodynamic from solid, Acetone, 50° C.; read-out: Solubility
endpoint_label: solubility at 2 days (µg/mL)
Just the number in µg/mL, nothing appended.

query: Write down solubility at 2 days measured for item O=C(c1ccc(NS(=O)(=O)c2cccc3cccnc23)cc1)N1CCN(CC2CC2)CC1 [Form A, hemisulfate sesquihydrate]
result: 6000

* * *

run_description: Solubility measurements by gravimetric method in solvents at 23° C. and 50° C.
Format: physicochemical
experimental_conditions: acetone, 23 °C, organic solvent or mixture, thermodynamic from solid, Acetone, 23° C.; read-out: Solubility
endpoint_label: solubility at 2 days (µg/mL)
Just the number in µg/mL, nothing appended.

query: Write down solubility at 2 days measured for item O=C(c1ccc(NS(=O)(=O)c2cccc3cccnc23)cc1)N1CCN(CC2CC2)CC1 [Form A, hemisulfate sesquihydrate]
result: 1000

* * *

run_description: Solubility measurements by gravimetric method in solvents at 23° C. and 50° C.
Format: physicochemical
experimental_conditions: IPA:DMSO:water (70:25:5), 23 °C, organic solvent or mixture, thermodynamic from solid, IPA:DMSO:water (70:25:5), 23° C.; read-out: Solubility
endpoint_label: solubility at 2 days (µg/mL)
Just the number in µg/mL, nothing appended.

query: Write down solubility at 2 days measured for item O=C(c1ccc(NS(=O)(=O)c2cccc3cccnc23)cc1)N1CCN(CC2CC2)CC1 [Form A, hemisulfate sesquihydrate]
result: 2000

* * *

run_description: Solubility measurements by gravimetric method in solvents at 23° C. and 50° C.
Assay type: physicochemical
experimental_conditions: EtOAc:MeOH (1:1) and 5 vol % water, 23 °C, organic solvent or mixture, thermodynamic from solid, EtOAc:MeOH (1:1) and 5 vol % water, 23° C.; read-out: Solubility
endpoint_label: solubility at 2 days (µg/mL)
Just the number in µg/mL, nothing appended.

query: Write down solubility at 2 days measured for item O=C(c1ccc(NS(=O)(=O)c2cccc3cccnc23)cc1)N1CCN(CC2CC2)CC1 [Form A, hemisulfate sesquihydrate]
result: 3000

* * *

run_description: Solubility in water and simulated fluids at 37° C. (slurry, HPLC; XRPD of residual solid)
Type: physicochemical
experimental_conditions: water, 37 °C, thermodynamic from solid, slurry time 2 days, values based on hemi-sulfate sesqui-hydrate salt
endpoint_label: solubility at 2 days (µg/mL)
Just the number in µg/mL, nothing appended.

query: Write down solubility at 2 days measured for item O=C(c1ccc(NS(=O)(=O)c2cccc3cccnc23)cc1)N1CCN(CC2CC2)CC1 [Form A, hemisulfate sesquihydrate]
result: 2690

* * *

run_description: Pharmacokinetic evaluation after single PO suspension dose
Type: in vivo, Sprague-Dawley rat
experimental_conditions: PO 200 mg/kg (free base equivalent), suspension in 0.5% methyl-cellulose, male Sprague-Dawley rats, n=6, plasma; hemisulfate sesquihydrate, 200 mg/kg
Experimental: Single dose in suspension using Crystalline Form A micronized and unmicronized, and crystalline free base of Compound 1 were administered to male Sprague-Dawley rat at 200 mg/kg. […] The plasma was then analyzed for these compounds by LC/MS. […] Bioanalytical quantitation using HPLC/triple quadruple mass spectrometry (HPLC-MS) was performed. Plasma concentrations and T½ were calculated and reported. […] MS: Column eluent was analyzed by electrospray ionization into a triple quadruple mass spectrometer system. […]
endpoint_label: AUC 0-last

# molecule, endpoint_label, observed
records = [
    ("O=C(c1ccc(NS(=O)(=O)c2cccc3cccnc23)cc1)N1CCN(CC2CC2)CC1 [Crystalline Form A (micronized), hemisulfate sesquihydrate]", "AUC 0-last", "478 µg·h/mL"),
]

Moving on to another molecule below.
query: Write down AUC 0-last measured for item O=C(c1ccc(NS(=O)(=O)c2cccc3cccnc23)cc1)N1CCN(CC2CC2)CC1 [Crystalline Form A (unmicronized), hemisulfate sesquihydrate]
result: 356 µg·h/mL

* * *

run_description: Solubility in MeOH:Water by slow heating to dissolve at fixed solvent volume
Type: physicochemical
experimental_conditions: organic solvent or mixture, thermodynamic from solid; MeOH:Water (99:1), 6 vol, temperature when dissolution 23 ° C.
endpoint_label: Solubility

query: Write down Solubility measured for item O=C(c1ccc(NS(=O)(=O)c2cccc3cccnc23)cc1)N1CCN(CC2CC2)CC1 [Form A, hemisulfate sesquihydrate]
result: > 167 mg/mL

* * *

run_description: Solubility measurements by gravimetric method in solvents at 23° C. and 50° C.
Assay type: physicochemical
experimental_conditions: MeOAc:MeOH (1:1) and 5 vol % water, 23 °C, organic solvent or mixture, thermodynamic from solid, MeOAc:MeOH (1:1) and 5 vol % water, 23° C.; read-out: Solubility
Protocol: Solubility measurements were done by gravimetric method in 20 different solvents at two temperatures (23° C. and 50° C.). About 20-30 mg of Form A, the synthesis of which is described below, was weighed and 0.75 mL solvent was added to form a slurry. […] From these three weights; vial, vial+liquid and vial+solid; the weight of dissolved solid and the solvent were calculated. Then using solvent density the solubility was calculated as mg solid/mL of solvent. […]
endpoint_label: solubility at 2 days (µg/mL)
Just the number in µg/mL, nothing appended.

query: Write down solubility at 2 days measured for item O=C(c1ccc(NS(=O)(=O)c2cccc3cccnc23)cc1)N1CCN(CC2CC2)CC1 [Form A, hemisulfate sesquihydrate]
result: 5000

* * *

run_description: Solubility measurements by gravimetric method in solvents at 23° C. and 50° C.
Assay type: physicochemical
experimental_conditions: IPAc, 50 °C, organic solvent or mixture, thermodynamic from solid, IPAc, 50° C.; read-out: Solubility
endpoint_label: solubility at 2 days (µg/mL)
Just the number in µg/mL, nothing appended.

query: Write down solubility at 2 days measured for item O=C(c1ccc(NS(=O)(=O)c2cccc3cccnc23)cc1)N1CCN(CC2CC2)CC1 [Form A, hemisulfate sesquihydrate]
result: 1000

* * *

run_description: Solubility measurements by gravimetric method in solvents at 23° C. and 50° C.
Type: physicochemical
experimental_conditions: MtBE, 50 °C, organic solvent or mixture, thermodynamic from solid, MtBE, 50° C.; read-out: Solubility
endpoint_label: solubility at 2 days

query: Write down solubility at 2 days measured for item O=C(c1ccc(NS(=O)(=O)c2cccc3cccnc23)cc1)N1CCN(CC2CC2)CC1 [Form A, hemisulfate sesquihydrate]
result: 3000 µg/mL

* * *

run_description: Solubility measurements by gravimetric method in solvents at 23° C. and 50° C.
Format: physicochemical
experimental_conditions: MeOAc:MeOH (1:1) and 2.5 vol % water, 50 °C, organic solvent or mixture, thermodynamic from solid, non-crystalline freebase; MeOAc:MeOH (1:1) and 2.5 vol % water, 50° C.; read-out: Solubility
endpoint_label: solubility at 2 days (mg/mL)
Just the number in mg/mL, nothing appended.

query: Write down solubility at 2 days measured for item O=C(c1ccc(NS(=O)(=O)c2cccc3cccnc23)cc1)N1CCN(CC2CC2)CC1
result: 36
